These data points were gathered from patent US9434711B2.

Target: canine TRPM8 (Canis lupus familiaris, UniProt Q1A7N1)
Sequence (Q1A7N1 1-1104): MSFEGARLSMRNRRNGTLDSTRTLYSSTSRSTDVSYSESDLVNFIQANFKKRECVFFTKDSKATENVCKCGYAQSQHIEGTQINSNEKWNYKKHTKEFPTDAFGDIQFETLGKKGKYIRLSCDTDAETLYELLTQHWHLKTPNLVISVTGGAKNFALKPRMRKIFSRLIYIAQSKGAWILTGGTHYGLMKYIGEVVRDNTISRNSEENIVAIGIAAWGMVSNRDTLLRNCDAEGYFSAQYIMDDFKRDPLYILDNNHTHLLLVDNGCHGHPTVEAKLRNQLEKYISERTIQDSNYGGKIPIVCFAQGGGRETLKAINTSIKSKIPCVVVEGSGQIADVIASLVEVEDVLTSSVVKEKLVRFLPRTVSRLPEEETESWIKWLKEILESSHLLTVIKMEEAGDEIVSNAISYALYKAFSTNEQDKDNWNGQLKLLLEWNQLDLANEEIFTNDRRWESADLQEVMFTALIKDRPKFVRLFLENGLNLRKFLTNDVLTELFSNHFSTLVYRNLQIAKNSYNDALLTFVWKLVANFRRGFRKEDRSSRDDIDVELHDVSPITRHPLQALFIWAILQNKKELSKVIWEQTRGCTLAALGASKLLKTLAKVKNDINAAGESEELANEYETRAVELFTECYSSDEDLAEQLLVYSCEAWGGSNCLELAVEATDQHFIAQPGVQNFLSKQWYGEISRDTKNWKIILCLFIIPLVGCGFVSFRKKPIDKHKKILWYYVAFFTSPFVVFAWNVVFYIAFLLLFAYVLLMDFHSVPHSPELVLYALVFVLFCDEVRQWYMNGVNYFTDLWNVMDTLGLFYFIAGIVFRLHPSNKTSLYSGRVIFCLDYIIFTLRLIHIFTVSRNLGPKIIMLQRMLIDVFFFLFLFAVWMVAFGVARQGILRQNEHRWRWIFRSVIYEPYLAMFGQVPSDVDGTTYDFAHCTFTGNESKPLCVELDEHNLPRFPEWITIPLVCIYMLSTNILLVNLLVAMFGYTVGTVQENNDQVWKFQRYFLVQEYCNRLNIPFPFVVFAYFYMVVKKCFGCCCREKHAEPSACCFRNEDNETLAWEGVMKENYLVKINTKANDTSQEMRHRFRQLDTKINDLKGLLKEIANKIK
Test: In Vitro Canine TRPM8 Functional Assay (Ca2+ fluorescence, icilin activation)
Format: cell-based
Conditions: HEK293 cells stably expressing canine TRPM8; icilin activation; eight-point dose-response; read-out: IC50
pIC50: −log10 of the molar value.

{"columns": ["compound", "pIC50"],
 "data": [
  ["COc1cc(NS(C)(=O)=O)c(Cl)cc1S(=O)(=O)N(Cc1ccc(F)c(C(F)(F)F)c1)c1sc2ccccc2c1Cl [Compound 766]", 8.11],
  ["COC(=O)c1ccccc1S(=O)(=O)N(Cc1ccc(F)c(C(F)(F)F)c1)c1sc2ccccc2c1Cl [Compound 196]", 8.10],
  ["Cc1c(N(Cc2ccc(Cl)c(F)c2)S(=O)(=O)c2ccc(C(=O)O)cc2)sc2ccccc12 [Compound 521]", 8.70],
  ["CCS(=O)(=O)N(Cc1ccc(F)c(C(F)(F)F)c1)c1sc2ccccc2c1Cl [Compound 190]", 7.82],
  ["Cc1c(N(Cc2cccnc2)S(=O)(=O)c2ccc(C(=O)O)cc2)sc2ccccc12 [Compound 495]", 7.26],
  ["O=c1[nH]c(-c2ccc(S(=O)(=O)N(Cc3ccc(F)c(C(F)(F)F)c3)c3sc4ccccc4c3Br)cc2)no1 [Compound 511]", 8.52],
  ["CC(C)(C)OCCCN(c1sc2ccccc2c1Br)S(=O)(=O)c1ccc(C(=O)O)cc1 [Compound 397]", 8.10],
  ["Cc1c(N(Cc2ccc(F)c(F)c2)S(=O)(=O)c2ccc3ncccc3c2)sc2ccccc12 [Compound 30]", 7.92],
  ["Cc1c(N(Cc2ccc(F)c(C(F)(F)F)c2)S(=O)(=O)c2ccc(C3=NOS(=O)N3)cc2)sc2ccccc12 (stereo not shown) [Compound 543]", 8.14],
  ["COc1ccc(S(=O)(=O)N(Cc2ccc(F)c(C(F)(F)F)c2)c2sc3ccccc3c2C)cn1 [Compound 359]", 7.77]
]}

* * *

compounds and their reported inhibition at 0.2 µM
Biological target: canine TRPM8 (Canis lupus familiaris)
Experiment: In Vitro Canine TRPM8 Functional Assay (Ca2+ fluorescence, icilin activation)
Type: cell-based
Details: compound at 0.2 μM; canine TRPM8, icilin activation; read-out: % Inh @ 0.2

{"columns": ["compound", "study_system", "inhibition at 0.2 µM"],
 "data": [
  ["O=S(=O)(c1cccnc1)N(CCCC(F)(F)F)c1cc2ccccc2s1 [Compound 383]", "canine TRPM8 (Canis lupus familiaris)", "49%"],
  ["Nc1ccc(S(=O)(=O)N(CCC(F)(F)F)c2sc3ccccc3c2Br)cc1Br [Compound 588]", "canine TRPM8 (Canis lupus familiaris)", "101%"],
  ["Cc1c(N(Cc2ccc(F)c(C(F)(F)F)c2)S(=O)(=O)c2ccc(-c3cc(C(F)(F)F)nn3C)s2)sc2ccccc12 [Compound 326]", "canine TRPM8 (Canis lupus familiaris)", "14%"],
  ["O=S(=O)(CC(F)(F)F)N(Cc1ccc(F)c(C(F)(F)F)c1)c1cc2ccccc2s1 [Compound 697]", "canine TRPM8 (Canis lupus familiaris)", "92%"],
  ["CCCCN(c1sc2ccccc2c1OC)S(=O)(=O)c1ccc(C(=O)OC)cc1 [Compound 422]", "canine TRPM8 (Canis lupus familiaris)", "97%"],
  ["COC(=O)CCCS(=O)(=O)N(Cc1ccc(F)c(C(F)(F)F)c1)c1sc2ccccc2c1C [Compound 757]", "canine TRPM8 (Canis lupus familiaris)", "101%"],
  ["Cc1c(N(Cc2cccc(OC(F)(F)F)c2)S(=O)(=O)CCC(=O)O)sc2ccccc12 [Compound 762]", "canine TRPM8 (Canis lupus familiaris)", "101%"],
  ["Cc1c(N(CCCCC(F)(F)F)S(=O)(=O)c2ccc(-c3nsc(=O)[nH]3)cc2)sc2ccccc12 [Compound 640]", "canine TRPM8 (Canis lupus familiaris)", "103%"],
  ["Cc1c(N(Cc2ccc(F)c(Cl)c2)S(=O)(=O)c2ccc(C(=O)O)cc2)sc2ccccc12 [Compound 489]", "canine TRPM8 (Canis lupus familiaris)", "101%"],
  ["O=S(=O)(c1cccnc1)N(Cc1ccc(F)c(C(F)(F)F)c1)c1sc2ccccc2c1Cl [Compound 189]", "canine TRPM8 (Canis lupus familiaris)", "100%"],
  ["O=S(=O)(c1ccc(Cl)nc1)N(Cc1ccc(F)c(C(F)(F)F)c1)c1sc2ccccc2c1Cl [Compound 338]", "canine TRPM8 (Canis lupus familiaris)", "95%"],
  ["CC(C)(O)c1c(N(Cc2ccc(F)cc2)S(=O)(=O)c2ccc(Br)cc2)sc2ccccc12 [Compound 734]", "canine TRPM8 (Canis lupus familiaris)", "102%"],
  ["O=C(O)c1ccc(S(=O)(=O)N(CCC2CC2)c2sc3ccccc3c2Br)c(F)c1 [Compound 709]", "canine TRPM8 (Canis lupus familiaris)", "102%"],
  ["COC(=O)c1ccc(S(=O)(=O)N(CCCCC(F)(F)F)c2sc3ccccc3c2Cl)cc1 [Compound 531]", "canine TRPM8 (Canis lupus familiaris)", "88%"],
  ["CC(C)(C)OCCN(c1sc2ccccc2c1Br)S(=O)(=O)c1ccc(C(=O)O)cc1 [Compound 275]", "canine TRPM8 (Canis lupus familiaris)", "97%"],
  ["CCS(=O)(=O)N(Cc1ccc(F)c(C(F)(F)F)c1)c1sc2ccccc2c1-c1cncnc1 [Compound 199]", "canine TRPM8 (Canis lupus familiaris)", "91%"],
  ["CN(C)Cc1c(N(Cc2ccc(F)c(C(F)(F)F)c2)S(=O)(=O)c2ccccc2)sc2ccccc12 [Compound 418]", "canine TRPM8 (Canis lupus familiaris)", "90%"]
]}

* * *

Molecular target: canine TRPM8 (Canis lupus familiaris)
Experiment: In Vitro Canine TRPM8 Functional Assay (Ca2+ fluorescence, icilin activation)
Type: cell-based
Settings: HEK293 cells stably expressing canine TRPM8; icilin activation; eight-point dose-response; read-out: IC50
pIC50: −log10 of the molar value.
Label scheme for pIC50: lower than 8 is F, 8 and above is T.

{"columns": ["substance_smiles", "study_system", "label"],
 "data": [
  ["O=c1[nH]c(-c2ccc(S(=O)(=O)N(CCCCC(F)(F)F)c3sc4ccccc4c3Br)cc2)ns1", "canine TRPM8 (Canis lupus familiaris)", "T"],
  ["Cc1c(N(CCCCC(F)(F)F)S(=O)(=O)c2ccc(C(=O)O)cc2F)sc2ccccc12", "canine TRPM8 (Canis lupus familiaris)", "T"],
  ["O=S1(=O)C(N(Cc2ccc(F)c(C(F)(F)F)c2)S(=O)(=O)c2ccccc2)=C(Br)c2ccccc21", "canine TRPM8 (Canis lupus familiaris)", "F"]
]}

* * *

compounds and their reported inhibition at 0.2 µM
Target: canine TRPM8 (Canis lupus familiaris, UniProt Q1A7N1)
Assay: In Vitro Canine TRPM8 Functional Assay (Ca2+ fluorescence, icilin activation)
Assay type: cell-based
Conditions: compound at 0.2 μM; canine TRPM8, icilin activation; read-out: % Inh @ 0.2
property_measured: inhibition at 0.2 µM (%)

{"columns": ["substance_smiles", "reading_unit", "test_result"],
 "data": [
  ["CC1=C(N(Cc2ccc(F)c(C(F)(F)F)c2)S(=O)(=O)c2ccc(C(=O)O)cc2)S(=O)(=O)c2ccccc21", "%", 55],
  ["CCS(=O)(=O)N(Cc1ccc(F)c(C(F)(F)F)c1)c1sc2ccccc2c1C=O", "%", 91],
  ["Cc1c(N(CCC2CC2)S(=O)(=O)c2ccc(C(=O)O)cc2F)sc2ccccc12", "%", 100],
  ["O=S(=O)(c1ccc(-c2nnn[nH]2)cc1)N(CCC(F)(F)F)c1sc2ccccc2c1Cl", "%", 103],
  ["CCCCN(c1sc2ccccc2c1Br)S(=O)(=O)c1cccnc1", "%", 99],
  ["Cc1c(N(CCC2CC2)S(=O)(=O)c2nc3ccccc3[nH]2)sc2ccccc12", "%", 69],
  ["O=C(O)c1ccc(S(=O)(=O)N(Cc2ccc(F)c(C(F)(F)F)c2)c2cc3ccccc3s2)cc1", "%", 96],
  ["Cc1c(N(CCC2CC2)S(=O)(=O)C(F)(F)F)sc2ccccc12", "%", 27.9],
  ["COC(=O)c1ccc(S(=O)(=O)N(CCCOC(C)(C)C)c2sc3ccccc3c2C)cc1", "%", 95],
  ["Cc1c(N(Cc2ccc(OC(F)(F)F)cc2)S(=O)(=O)c2ccc(-n3ccnc3CN(C)C)cc2)sc2ccccc12", "%", 95],
  ["CCCCN(c1sc2ccccc2c1C(C)=O)S(=O)(=O)c1ccc(Br)cc1", "%", 96],
  ["O=C(Nc1ccc(S(=O)(=O)N(Cc2ccc(F)c(C(F)(F)F)c2)c2sc3ccccc3c2Br)cc1)C(F)(F)F", "%", 101],
  ["O=S(=O)(CC(F)(F)F)N(Cc1ccc(F)c(C(F)(F)F)c1)c1sc2ccccc2c1Br", "%", 99],
  ["O=c1[nH]c(-c2ccc(S(=O)(=O)N(CCCC(F)(F)F)c3cc4ccccc4s3)cc2)no1", "%", 101],
  ["CS(=O)(=O)Nc1ccc(S(=O)(=O)N(CCC(F)(F)F)c2cc3ccccc3s2)cc1", "%", 92],
  ["CC(=O)Nc1c(N(Cc2ccc(F)c(C(F)(F)F)c2)S(=O)(=O)c2ccccc2)sc2ccccc12", "%", 100],
  ["Nc1ccc(S(=O)(=O)N(CCC(F)(F)F)c2sc3ccccc3c2Br)cc1", "%", 100],
  ["CC(=O)c1c(N(Cc2ccc(F)c(C(F)(F)F)c2)S(C)(=O)=O)sc2ccccc12", "%", 101],
  ["CCCCN(C1=C(Br)c2ccccc2S1(=O)=O)S(=O)(=O)c1ccc(C(=O)OC)cc1", "%", 93],
  ["Cc1c(N(CCC2CC2)S(=O)(=O)c2ccc(C(=O)N[C@H]3CCNC3)cc2)sc2ccccc12", "%", 33],
  ["Cc1c(N(Cc2ccc(F)c(C(F)(F)F)c2)S(=O)(=O)c2ccc(-c3nsc(=O)[nH]3)cc2)sc2ccccc12", "%", 102],
  ["O=C(O)c1ccc(S(=O)(=O)N(Cc2ccc(F)c(C(F)(F)F)c2)c2sc3ccccc3c2C2CCCC2)cc1", "%", 100]
]}
